# Tested on: HCT-116
# ASSAY REMARKS: NCI tumour cell line growth inhibition, 48 h
The source made the active and inactive calls. Cut-off read from the data, not from the text of the source: active = GI50 up to about 1.1 µM and inactive = higher.
QUANTITY KIND: GI50

COMPOUND: Cc1ccc2nc3sc(=O)sc3nc2c1
TEST TARGET: HCT-116
GI50: 17.2 µM (inactive)
--
COMPOUND: Oc1c(-c2ccccc2)sc2ccccc12
TEST TARGET: HCT-116
GI50: 18.7 µM (inactive)

// query What does the data say about its GI50? Entry: C(CCC[Te][Te]CCCCCCOC1CCCCO1)CCOC1CCCCO1 (stereo not drawn)
// result 19.8 µM (inactive)

// query Which GI50 is reported for this compound? COc1c(Cl)ccc(Cl)c1C(=O)NNC(=O)c1c(Cl)c(Cl)c(Cl)c(Cl)c1-c1nc2cc(C(=O)c3ccccc3)ccc2[nH]1
// result 66.7 µM (inactive)

// query I would be grateful if you could share the reported GI50 for O=C(Nc1nc2ncn(CCNCc3ccccc3)c2c(=O)[nH]1)c1ccccc1 .
// result > 100 µM (inactive)

// query // returns reported GI50 for input CC(C)CCCC(C)[C@H]1CC[C@H]2[C@@H]3CC[C@H]4C[C@@H](CCC=C(c5cc(Cl)c(O)c(C(=O)OC(C)(C)C)c5)c5cc(Cl)c(O)c(C(=O)OC(C)(C)C)c5)CC[C@]4(C)[C@H]3CC[C@]12C (stereo partly drawn)
// result > 50 µM (inactive)

// query Entry Cc1[nH]c(=O)[nH]c(=O)c1/C=C/C(=O)NC(CO)C[S+]([O-])C[S+](C)[O-] (stereo not drawn) has what GI50?
// result 19.3 µM (inactive)

// query // GI50 lookup, key: c1ccc2c(c1)[n-]n1c3ccc4nonc4c3n[n+]21
// result > 100 µM (inactive)
